Measured CC50, listed per entry.
Test system: HeLa
Assay: Antiproliferative activity against BRCA1-deficient human HeLa cells after 7 days by celltiter-blue assay
Format: functional
Settings: 168 h
The reply should be a number in nM, with the unit left off.

CNC1CCN(C(=O)c2cc(Cc3c[nH]c(=O)c4cc(Cl)c(Cl)n34)ccc2F)CC1 | 400
CC(=O)N1CCCN(C(=O)c2cc(Cc3c[nH]c(=O)c4cc(Cl)c(Cl)n34)ccc2F)CC1 | 5700
CN1CCCN(C(=O)c2cc(Cc3c[nH]c(=O)c4cc(Cl)c(Cl)n34)ccc2F)CC1 | 1100
CC(C)CN1CCN(C(=O)c2cc(Cc3c[nH]c(=O)c4cc(Cl)c(Cl)n34)ccc2F)CC1 | 250
O=C(c1cc(Cc2c[nH]c(=O)c3cc(Cl)cn23)ccc1F)N1CCCNCC1 | 2500
O=C(c1cc(Cc2c[nH]c(=O)c3c(Cl)c(Cl)cn23)ccc1F)N1CCCNCC1 | 220
CN(C)C1CCN(C(=O)c2cc(Cc3c[nH]c(=O)c4cc(Cl)c(Cl)n34)ccc2F)CC1 | 1600
CCN(CC)C1CCN(C(=O)c2cc(Cc3c[nH]c(=O)c4cc(Cl)c(Cl)n34)ccc2F)CC1 | 1100
COc1cccnc1N1CCN(C(=O)c2cc(Cc3c[nH]c(=O)c4cc(Cl)c(Cl)n34)ccc2F)CC1 | 2700
CN(C)CC(=O)N1CCN(C(=O)c2cc(Cc3c[nH]c(=O)c4cc(Cl)c(Cl)n34)ccc2F)CC1 | 3500

Value of CC50 reported for the molecule O=C(c1ccccn1)N1CCN(C(=O)c2cc(Cc3c[nH]c(=O)c4cc(Cl)c(Cl)n34)ccc2F)CC1 is 150

Value of CC50 reported for the molecule O=C(c1cc(Cc2c[nH]c(=O)c3cc(Cl)c(Cl)n23)ccc1F)N1CCC(N2CCC2)CC1 is 180

Value of CC50 reported for the molecule NC1CCN(C(=O)c2cc(Cc3c[nH]c(=O)c4cc(Cl)c(Cl)n34)ccc2F)CC1 is 3800
